# credit: patent US9932314B2

- test.system: voltage-dependent T-type calcium channel subunit alpha-1G (Cav3.2) (Homo sapiens, UniProt O95180)
- Sequence (O95180 whole entry): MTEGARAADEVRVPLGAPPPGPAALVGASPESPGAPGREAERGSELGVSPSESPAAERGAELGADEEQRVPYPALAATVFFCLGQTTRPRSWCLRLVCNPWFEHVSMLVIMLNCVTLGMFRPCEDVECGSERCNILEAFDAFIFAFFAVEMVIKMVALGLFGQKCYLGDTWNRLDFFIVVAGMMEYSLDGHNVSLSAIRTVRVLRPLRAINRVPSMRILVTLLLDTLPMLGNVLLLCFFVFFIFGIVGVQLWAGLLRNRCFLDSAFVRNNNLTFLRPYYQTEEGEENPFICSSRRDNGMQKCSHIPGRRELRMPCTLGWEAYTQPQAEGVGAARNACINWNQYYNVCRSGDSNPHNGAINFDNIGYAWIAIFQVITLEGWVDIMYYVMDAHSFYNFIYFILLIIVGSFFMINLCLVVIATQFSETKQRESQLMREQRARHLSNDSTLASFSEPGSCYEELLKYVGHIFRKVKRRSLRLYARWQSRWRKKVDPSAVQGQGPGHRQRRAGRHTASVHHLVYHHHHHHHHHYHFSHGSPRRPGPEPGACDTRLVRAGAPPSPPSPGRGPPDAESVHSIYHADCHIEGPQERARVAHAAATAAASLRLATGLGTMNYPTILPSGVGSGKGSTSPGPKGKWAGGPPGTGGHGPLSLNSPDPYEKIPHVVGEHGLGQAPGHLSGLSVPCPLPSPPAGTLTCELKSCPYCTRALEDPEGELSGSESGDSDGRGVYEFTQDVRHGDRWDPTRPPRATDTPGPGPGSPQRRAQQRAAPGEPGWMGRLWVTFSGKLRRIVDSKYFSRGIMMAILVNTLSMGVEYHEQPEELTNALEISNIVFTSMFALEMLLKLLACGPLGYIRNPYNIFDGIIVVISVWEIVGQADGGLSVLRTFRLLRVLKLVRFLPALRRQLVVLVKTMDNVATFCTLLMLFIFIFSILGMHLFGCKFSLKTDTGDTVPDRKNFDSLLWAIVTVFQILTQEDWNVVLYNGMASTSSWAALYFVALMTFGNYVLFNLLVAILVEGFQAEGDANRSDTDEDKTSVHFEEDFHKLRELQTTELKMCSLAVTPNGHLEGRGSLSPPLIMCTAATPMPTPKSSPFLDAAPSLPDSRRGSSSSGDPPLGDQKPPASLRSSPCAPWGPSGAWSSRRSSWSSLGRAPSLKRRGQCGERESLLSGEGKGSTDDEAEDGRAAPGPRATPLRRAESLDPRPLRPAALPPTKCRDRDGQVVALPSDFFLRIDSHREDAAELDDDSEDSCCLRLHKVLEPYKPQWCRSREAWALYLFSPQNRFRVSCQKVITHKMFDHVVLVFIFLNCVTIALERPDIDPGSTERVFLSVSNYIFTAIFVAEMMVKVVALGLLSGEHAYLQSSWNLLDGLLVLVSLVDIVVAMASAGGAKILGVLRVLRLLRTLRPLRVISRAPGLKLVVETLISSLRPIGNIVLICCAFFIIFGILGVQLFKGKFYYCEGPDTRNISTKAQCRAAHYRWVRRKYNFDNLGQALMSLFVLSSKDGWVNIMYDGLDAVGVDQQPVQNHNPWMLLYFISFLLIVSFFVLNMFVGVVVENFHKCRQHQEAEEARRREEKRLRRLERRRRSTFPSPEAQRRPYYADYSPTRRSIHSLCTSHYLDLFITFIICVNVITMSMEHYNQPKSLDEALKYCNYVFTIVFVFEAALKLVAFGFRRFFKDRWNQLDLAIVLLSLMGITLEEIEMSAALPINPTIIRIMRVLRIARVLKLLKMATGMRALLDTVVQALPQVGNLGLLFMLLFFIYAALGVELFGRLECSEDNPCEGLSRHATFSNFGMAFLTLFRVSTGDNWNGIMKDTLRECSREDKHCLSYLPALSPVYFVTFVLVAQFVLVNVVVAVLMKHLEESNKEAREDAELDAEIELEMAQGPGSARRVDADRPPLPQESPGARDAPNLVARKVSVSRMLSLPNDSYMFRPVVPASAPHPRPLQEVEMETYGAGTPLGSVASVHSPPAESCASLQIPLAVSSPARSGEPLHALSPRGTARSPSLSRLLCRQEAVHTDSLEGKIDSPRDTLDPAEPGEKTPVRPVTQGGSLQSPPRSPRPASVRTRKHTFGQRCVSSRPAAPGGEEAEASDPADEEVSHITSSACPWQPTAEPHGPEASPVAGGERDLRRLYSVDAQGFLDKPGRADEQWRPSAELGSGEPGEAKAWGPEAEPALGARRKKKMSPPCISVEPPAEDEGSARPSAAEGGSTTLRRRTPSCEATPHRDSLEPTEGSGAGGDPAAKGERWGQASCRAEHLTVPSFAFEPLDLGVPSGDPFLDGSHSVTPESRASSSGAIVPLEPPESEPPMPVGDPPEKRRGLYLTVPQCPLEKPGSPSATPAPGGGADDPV
- experimental.protocol: FLIPR calcium flux assay, HEK293 cells recombinantly expressing Cav3.2
- stated.conditions: Cav3.2-channel, Fluo-4-AM, 3 min incubation, stimulation with 10 mM CaCl2
pIC50: −log10 of the molar value.
reported.property: pIC50

COc1ccc(Cn2ccc(NC(=O)Cc3ccc(N4CC[C@H](F)C4)nc3)n2)cc1 : 6.75
Cc1cn(C)c2ccc(CC(=O)Nc3ccn(Cc4cc(F)c(C#N)c(F)c4)n3)cc12 : 7.70

(1) CCc1ccc(Cn2ccc(NC(=O)Cc3ccc(N(C)C)cc3)n2)cc1
(2) CC1(COc2ccc(CC(=O)Nc3ccn(Cc4ccc(F)c(F)c4)n3)cc2)CC(F)(F)C1
Query :: For the two items 1 and 2 , which reports the higher pIC50 value? Lab log: write the label of the selected item as the result.
Result :: 1

(1) CC1(c2ccc(CC(=O)Nc3ccn(Cc4ccc(F)c(C#N)c4)n3)cc2)COC1
(2) CC(C)Cc1ccc(CC(=O)Nc2ccn(Cc3ccc(C#N)cn3)n2)cc1C#N
Query :: Returns the identifier with the smallest measured pIC50 among 1 and 2 . Could you answer with the label of the item you picked?
Result :: 2

(A) N#Cc1cc(Cn2ccc(NC(=O)Cc3ccc(OCC4COC4)cc3)n2)ccc1F
(B) CCN(CC)c1ccc(CC(=O)Nc2ccn(Cc3ccc(C#N)cc3)n2)cc1
(C) CN(C)c1ccc(CC(=O)Nc2ccn(Cc3ccc(F)cn3)n2)cn1
(D) Cc1cc(CC(=O)Nc2ccn(Cc3ccc(F)c(C#N)c3)n2)ccc1OCC(F)(F)F
(E) N#Cc1ccc(Cn2ccc(NC(=O)Cc3ccc(N4CCC4)cc3)n2)cc1
Query :: I would appreciate it if you could sort these 5 compounds by pIC50, starting from the smallest number. Please reply with the labels ordered as requested. Many thanks.
Result :: C, A, E, B, D

(A) CCc1cc(CC(=O)Nc2ccn(Cc3ccc(F)c(C#N)n3)n2)ccc1OCC(F)(F)F
(B) Cc1cc(CC(=O)Nc2ccn(Cc3cc(C#N)c(F)cn3)n2)ccc1OCC(F)(F)F
Query :: Looking at recorded values for pIC50, does A or B come in lower? Please reply using the label of the selected record.
Result :: B

* * *

- test.system: voltage-dependent T-type calcium channel subunit alpha-1G (Cav3.2) (Homo sapiens)
- experimental.protocol: FLIPR calcium flux assay, HEK293 cells recombinantly expressing Cav3.2
- stated.conditions: Cav3.2-channel, Fluo-4-AM, 3 min incubation, stimulation with 10 mM CaCl2
pIC50: −log10 of the molar value.
reported.property: pIC50

Some solved entries appear below for comparison.
CC1(COc2ccc(CC(=O)Nc3ccn(Cc4ccc(F)c(C#N)c4)n3)cc2)CC(F)(F)C1 [Example 311] : 7.09
O=C(Cc1ccc2c(c1)OCC(=O)N2)Nc1ccn(Cc2ccc(F)c(F)c2)n1 [Example 208] : 7.06
O=C(Cc1ccc(N2CC(F)(F)C2)nc1)Nc1ccn(Cc2ccc(F)c(F)c2)n1 [Example 143] : 7.72
N#Cc1ccc(Cn2ccc(NC(=O)Cc3ccc(N4CCC4)nc3)n2)nc1 [Example 102] : 5.15
CC(C)c1ccc(CC(=O)Nc2ccn(Cc3ccc(C#N)c(C4CC4)n3)n2)cc1 [Example 133] : 6.72
O=C(Cc1ccc(N2CCCC2)nc1)Nc1ccn(Cc2ccc(F)cc2)n1 [Example 177] : 7.74

(a) CC(C)c1ccc(CC(=O)Nc2ccn(Cc3ccc(C(F)(F)F)cn3)n2)cc1 [Example 109]
(b) N#Cc1ccc(Cn2ccc(NC(=O)Cc3ccc(N4CC(F)(F)C4)nc3)n2)cc1 [Example 144]
Query :: Could you kindly indicate whether a or b has the higher pIC50 value? Pick one; state its label.
Result :: a
(a: 7.66, b: 6.80)
